Each entry below lists one item and its recorded Hepatotoxicity (association with vascular disease) value.
conditions: human
// return a plain number; no unit text

// below: answered compounds
1) c1ccc(C2(N3CCCCC3)CCCCC2)cc1; 0
2) Oc1ncc(N(CCCl)CCCl)c(O)n1; 0
3) COc1c(N2C[C@@H]3CCCN[C@@H]3C2)c(F)cc2c(=O)c(C(=O)O)cn(C3CC3)c12; 0

With those in mind, consider the next compound.
Consider CC(=O)O[C@@]12CO[C@@H]1C[C@H](O)[C@@]1(C)C(=O)[C@H](O)C3=C(C)[C@@H](OC(=O)[C@H](O)[C@@H](NC(=O)OC(C)(C)C)c4ccccc4)C[C@@](O)([C@@H](OC(=O)c4ccccc4)[C@H]21)C3(C)C.O.O.O . Its measured Hepatotoxicity (association with vascular disease) is 0

====

settings: human
EXPERIMENTAL ENDPOINT: Hepatotoxicity (severe hepatitis)
// return a plain number; no unit text

1. C#CCN(C)[C@H](C)Cc1ccccc1; 0
2. CC/C(=C(/c1ccc(OCCN(C)C)cc1)c1cccc(O)c1)c1ccccc1; 0

Consider NC(=O)NC(=O)Cc1ccccc1 [PHENACEMIDE] . Its measured Hepatotoxicity (severe hepatitis) is 8

Consider CC[C@]1(O)CC[C@H]2[C@@H]3CCC4=CC(=O)CC[C@@H]4[C@H]3CC[C@@]21C . Its measured Hepatotoxicity (severe hepatitis) is 2

Consider COc1ccc(CN2CCNCC2)c(OC)c1OC . Its measured Hepatotoxicity (severe hepatitis) is 0

Consider O=C(O)c1cccs1 . Its measured Hepatotoxicity (severe hepatitis) is 0

Consider COc1cc(N)c(Cl)cc1C(=O)NC1CCN(CCCOc2ccc(F)cc2)CC1OC (stereo not given) [CISAPRIDE] . Its measured Hepatotoxicity (severe hepatitis) is 0

====

Each entry below lists one item and its recorded Hepatotoxicity (severe hepatitis) value.
conditions: human
Where a SMILES comes first, the peptide text is derived from it. Bridges are numbered along the chain shown (N, C = ends). [ ]: non-standard residue; d: D form.
// return a plain number; no unit text

// below: answered molecules
1. C[C@]12CC[C@H]3[C@@H](CCC4=CC(=O)CC[C@@]43C)[C@@H]1CC[C@@H]2O; 1
2. Cc1cn([C@H]2CC[C@@H](CO)O2)c(=O)[nH]c1=O; 0

With those in mind, consider the next molecule.
Consider CC(C)[C@@H]1NC(=O)[C@H](CCCCN)NC(=O)[C@@H](Cc2c[nH]c3ccccc23)NC(=O)[C@H](Cc2ccc(O)cc2)NC(=O)[C@@H](NC(=O)[C@H](N)Cc2ccccc2)CSSC[C@@H](C(=O)N[C@@H](Cc2c[nH]c3ccccc23)C(N)=O)NC1=O [VAPREOTIDE] (H-[dF]CY[dW]KVCW-NH2; disulfide 2-7) . Its measured Hepatotoxicity (severe hepatitis) is 0

====

details: human
Each entry below lists one item and its recorded Hepatotoxicity (severe hepatitis) value.
// return a plain number; no unit text

Consider FC(F)OC(Cl)C(F)(F)F (stereo not drawn) . Its measured Hepatotoxicity (severe hepatitis) is 11

Consider CN(C)[C@@H]1C(O)=C(C(N)=O)C(=O)[C@@]2(O)C(O)=C3C(=O)c4c(O)cccc4[C@@](C)(O)[C@H]3C[C@@H]12 . Its measured Hepatotoxicity (severe hepatitis) is 7

Consider CC(=O)N[C@H]1[C@@H](O[C@H]2[C@H](O)[C@@H](O)[C@H](O[C@H]3[C@H](CS(=O)(=O)O)[C@@H](OS(=O)(=O)O)[C@@H](O[C@H]4[C@H](O)[C@@H](OS(=O)(=O)O)C(O)O[C@H]4C(=O)O)O[C@@H]3O)O[C@@H]2C(=O)O)O[C@H](COS(=O)(=O)O)[C@@H](O)[C@@H]1O (stereo partly drawn) [SODIUM HEPARIN] . Its measured Hepatotoxicity (severe hepatitis) is 1
